All figures here come from PubChem BioAssay.

Target: Cell division control protein 42 homolog (Homo sapiens) (UniProt P60953)
Sequence (P60953 whole entry, looked up): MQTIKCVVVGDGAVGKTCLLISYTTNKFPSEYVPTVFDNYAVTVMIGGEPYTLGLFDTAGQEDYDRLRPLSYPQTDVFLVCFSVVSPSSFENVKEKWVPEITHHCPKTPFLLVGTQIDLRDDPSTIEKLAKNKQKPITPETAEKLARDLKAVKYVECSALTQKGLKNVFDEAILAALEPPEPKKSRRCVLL
Test: inhibition of fluorescent GTP binding to wildtype Cdc42 – biochemical, multiplex bead flow cytometry, Bodipy-FL-GTP, dose response (AID 1334)
Details: bead-based flow cytometry, Bodipy-FL-GTP binding to GST-Cdc42; at 100 µM (top of the series) unless noted
Potency and affinity values are given separately.
PARAMETER MEASURED: fluorescence, percent of control (lower = inhibition) (%)
Answers are plain numbers, in %.

Please review the following examples before continuing.
| COMPOUND | READING |
| --- | --- |
| Cc1ccc(-n2nc3c(=S)[nH]nc(C)c3c2C)cc1 | 54.7 |
| CCc1ccc(OCc2ccc(C(=O)O)o2)cc1 | 60.7 |
| Cc1ccc(OCCn2cnc3cc([N+](=O)[O-])ccc3c2=O)cc1 | 38.1 |

Quick one: give me fluorescence, percent of control (lower = inhibition) for each item below, same order please.
1. COc1cc(/C=C/c2ccc3cccc([N+](=O)[O-])c3n2)ccc1OCC(=O)O
2. COc1cc(/C=N/Nc2nncn2/N=C/c2ccc(O)c(OC)c2)ccc1O
3. O=S(=O)(Cc1ccc(Cl)cc1)c1ccccc1-c1nnc(-c2ccc(Cl)cc2)o1
4. CCOc1ccc(-n2nc3c(=O)[nH]nc(C)c3c2C)cc1
5. O=C(Nc1cccc2ccccc12)c1cnccn1
6. O=C(O)c1ccccc1NCc1c(Cl)cccc1Cl
7. Cc1ccc(O)c(N=Cc2cc(Cc3ccccc3)cc([N+](=O)[O-])c2O)c1

[out]
1. 32.7
2. 30.7
3. 84
4. 46.5
5. 85.4
6. 59.4
7. 30.7

---

For each record, write down the corresponding GTP binding, percent of control.
Molecular target: GTPase HRas (Homo sapiens) (UniProt P01112)
Sequence (P01112 whole entry, looked up): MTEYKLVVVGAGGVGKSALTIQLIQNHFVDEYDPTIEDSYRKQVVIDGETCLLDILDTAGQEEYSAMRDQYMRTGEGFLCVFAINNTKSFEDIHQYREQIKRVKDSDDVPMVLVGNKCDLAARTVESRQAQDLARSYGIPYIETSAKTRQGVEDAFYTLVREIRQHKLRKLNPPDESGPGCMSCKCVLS
Assay: Ras wt fluorescent GTP loading blockade – biochemical, wildtype, multiplex bead flow cytometry, dose response (AID 1335)
Conditions: bead-based flow cytometry, Bodipy-GTP binding to GST-Ras; at 100 µM (top of the series) unless noted
Give bare numbers, in %.

These recorded examples may help you get a feel for the data.
| COMPOUND | GTP binding, percent of control / % |
| --- | --- |
| Cc1n[nH]c(=S)c2nn(-c3ccccc3F)c(C)c12 | 62.5 |
| O=C(COc1cc(Cl)ccc1Cl)Nc1nnc(CC(=O)N2CCOCC2)s1 | 152 |

Batch: GTP binding, percent of control for all items listed.
1. COc1ccc(C(=O)O)c(OCc2ccccc2Br)c1
2. O=C(CSc1ccc2nnc(-c3ccccn3)n2n1)Nc1nccs1
3. Cc1cc(OCc2ccc(C(=O)O)o2)ccc1Cl
4. Nc1c(S(=O)(=O)c2cccs2)c2nc3ccccc3nc2n1/N=C/c1cccc(O)c1
5. N#Cc1c(-c2cccc(Br)c2)cc(-c2ccco2)[nH]c1=O
6. COCCN1C(=O)/C(=C/c2ccc(N3CCCC3)cc2C)SC1=S

[out]
1: 171; 2: 61.7; 3: 85.2; 4: 77.3; 5: 58.9; 6: 104

Give GTP binding, percent of control for all compounds that follow.
1. Cc1cc(C)n2nc(C(=O)Nc3ccc(S(=O)(=O)N4CCCC4)cc3)nc2n1
2. O=C(O)c1ccc(N2C(=O)/C(=C/c3ccc(-c4ccc([N+](=O)[O-])cc4)o3)C=C2c2ccccc2)cc1
3. COC(=O)C1=C(C)NC(=O)/C1=C\c1cc(C)n(-c2c(C)cccc2C)c1C
4. Cc1ccc(Nc2c(F)c(F)c(F)c(F)c2C(=O)O)cc1
5. Cc1cc(C)n2nc(C(=O)N3CCCC(CNS(=O)(=O)c4cccs4)C3)cc2n1 (centres undefined)

[out]
1: 82.5; 2: 77.4; 3: 84.9; 4: 106; 5: 85.6

[in] Fill in GTP binding, percent of control for record CCn1c2ccccc2c2nnc(SCC(=O)NCCOC)nc21
[out] 59.6

---

Assay: TOR pathway GLN3 branch reporter MEP2-GFP changes – S. cerevisiae, multiplex flow cytometry, primary screen (AID 1867);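 also: median GFP channel fluorescence of barcode-gated MEP2-GFP cells measured by flow cytometry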
Conditions: S. cerevisiae MEP2-GFP strain, 3 h, at 10 µM, stronger effect = higher value, 100% means same as DMSO wells
Inconclusive results are not listed. Active and inactive are the calls of the source.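 The calls were made as follows: active = GFP response, as percent of the DMSO control, above the screen-wide mean plus 3 SD, about 139; inconclusive = no response measured because the compound's own fluorescence interfered; inactive = the rest.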
PARAMETER MEASURED: GFP response vs DMSO

Below, 4 compounds whose answers are already recorded.
| COMPOUND | READING |
| --- | --- |
| C/C=C(/C(=C/C)c1ccc(O)cc1)c1ccc(O)cc1 | 135% (inactive) |
| COc1cc2cc(C(=O)O)[nH]c2c(OC)c1OC | 106% (inactive) |
| CCCCOc1ccc(C(=O)CCN2CCCCC2)cc1 | 96.6% (inactive) |
| CN(C)CCOC(=O)C(c1ccccc1)C1(O)CCCC1 (stereo not given) | 137% (inactive) |

In the following, a different compound is considered.
[in] Tell me measured GFP response vs DMSO for CC(C)=CC/C=C1\CCC(C(=O)O)C(C(=O)O)C1 (stereo not given) please.
[out] 123% (inactive)

---

Provide the reported inhibition of each item.
Target: AP-2 complex subunit beta (Homo sapiens) (UniProt P63010)
Sequence (P63010 whole entry, looked up, one chain of several): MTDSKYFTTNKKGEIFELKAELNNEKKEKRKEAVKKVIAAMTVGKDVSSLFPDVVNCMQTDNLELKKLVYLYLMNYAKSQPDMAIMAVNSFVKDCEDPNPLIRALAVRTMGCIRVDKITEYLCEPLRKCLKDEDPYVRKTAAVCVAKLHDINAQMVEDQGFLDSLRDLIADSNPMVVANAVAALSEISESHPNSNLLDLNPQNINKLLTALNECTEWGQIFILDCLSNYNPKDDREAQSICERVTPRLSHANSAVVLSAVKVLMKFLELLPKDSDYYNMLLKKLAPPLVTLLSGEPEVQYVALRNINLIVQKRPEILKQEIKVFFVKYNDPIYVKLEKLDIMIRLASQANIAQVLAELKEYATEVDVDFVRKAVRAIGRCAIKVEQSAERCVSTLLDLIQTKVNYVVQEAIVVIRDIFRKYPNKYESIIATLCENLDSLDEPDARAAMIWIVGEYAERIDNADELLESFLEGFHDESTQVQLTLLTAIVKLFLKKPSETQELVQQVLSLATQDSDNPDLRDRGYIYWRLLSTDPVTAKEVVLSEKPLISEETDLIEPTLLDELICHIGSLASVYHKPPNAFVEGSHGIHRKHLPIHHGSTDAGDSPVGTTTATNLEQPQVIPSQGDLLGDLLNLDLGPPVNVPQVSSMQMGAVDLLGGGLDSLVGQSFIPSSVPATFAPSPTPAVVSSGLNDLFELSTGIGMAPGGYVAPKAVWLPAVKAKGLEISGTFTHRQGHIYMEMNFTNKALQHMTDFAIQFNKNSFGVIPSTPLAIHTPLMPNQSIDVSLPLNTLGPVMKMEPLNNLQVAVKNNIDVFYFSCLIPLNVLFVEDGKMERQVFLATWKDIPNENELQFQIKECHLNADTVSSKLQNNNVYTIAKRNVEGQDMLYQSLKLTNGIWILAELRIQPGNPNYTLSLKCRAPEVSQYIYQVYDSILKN
Experiment: beta-arrestin/AP2 interaction blockers – biochemical, validation set, GST-AP2 beads, flow cytometry, pilot screen (AID 504541);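 also: AP2 carries R879A mutation and is captured from E. coli lysate; bead-bound FITC arrestin peptide fluorescence measuring arrestin peptide binding to AP2; 0% = DMSO wells and 100% = excess unlabeled arrestin peptide control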
Conditions: FITC arrestin peptide, at 10 µM, stronger effect = higher value, AP2 beta2 appendage fragment, R879A mutant
Give bare numbers, in %.

| STRUCTURE SMILES STRING | PARAMETER MEASURED | UNIT ABBREV | READING |
| --- | --- | --- | --- |
| Cc1ccc2[nH]c3c(c2c1)CCNC3=O | inhibition | % | -5.6 |
| CC[C@H](C)C(=O)O[C@H]1C[C@@H](C)C=C2C=C[C@H](C)[C@H](CC[C@@H]3C[C@@H](O)CC(=O)O3)[C@H]21 | inhibition | % | 49.7 |
| CN(C)C(=O)Oc1ccc[n+](C)c1 | inhibition | % | 16.8 |

Items follow; give inhibition for each.
1. CC(C)=CCC/C(C)=C/CC/C(C)=C/CC/C(C)=C/CC1=C(C)C(=O)c2ccccc2C1=O
2. CC(=O)N1c2ccccc2C(C)=CC1(C)C

[out]
1: -12.1; 2: -16.5

---

Biological target: Beta-2 adrenergic receptor (Homo sapiens)
Test: agonist-induced loss of surface beta2AR – cell-based, FAP fluorogen, flow cytometry, validation set, pilot screen (AID 504459);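 also: agonist-driven loss of surface beta2AR via internalization measured by FAP dye flow cytometry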
Settings: Am2.2-beta2AR cells, at 10 µM, stronger effect = higher value
PARAMETER MEASURED: response (%)
Answers are plain numbers, in %.

// below: answered molecules
| STRUCTURE SMILES STRING | SYSTEM | READING |
| --- | --- | --- |
| C=CCOc1ccc(C(=O)CC)cc1OC | Beta-2 adrenergic receptor (Homo sapiens) | 2.91 |
| COC(=O)[C@@H](N)CS | Beta-2 adrenergic receptor (Homo sapiens) | 15.2 |
| CCOC(=O)c1oc2cc(O)cc(C)c2c(=O)c1-c1cscn1 | Beta-2 adrenergic receptor (Homo sapiens) | -3.97 |
| Cc1cccc(N2CCN(C(=S)c3ccccc3)CC2)c1 | Beta-2 adrenergic receptor (Homo sapiens) | -1.25 |

Attention now turns to another entry.
[in] Quick one: give measured response for COC(=O)c1ccc(NC(=O)c2ccccc2SC)cc1
[out] 1.63

---

I'd appreciate it if you could supply inhibition values for the items below.
Target: AP-2 complex subunit beta (Homo sapiens) (UniProt P63010)
Assay: beta-arrestin/AP2 interaction blockers – biochemical, validation set, GST-AP2 beads, flow cytometry, pilot screen (AID 504541);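 also: AP2 carries R879A mutation and is captured from E. coli lysate; bead-bound FITC arrestin peptide fluorescence measuring arrestin peptide binding to AP2; 0% = DMSO wells and 100% = excess unlabeled arrestin peptide control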
Conditions: FITC arrestin peptide, at 10 µM, stronger effect = higher value, AP2 beta2 appendage fragment, R879A mutant
Answers are plain numbers, in %.

Before answering, review these 5 worked examples.
| MOLECULE | SYSTEM | UNIT ABBREV | READING |
| --- | --- | --- | --- |
| CN1[C@@H]2CC[C@H]1CC(OC(=O)C(CO)c1ccccc1)C2 (stereo not given in full) | AP-2 complex subunit beta (Homo sapiens) (UniProt P63010) | % | -4.27 |
| Cc1ccc2c(c1)C1CN(C)CCC1N2S(=O)(=O)c1ccc(Oc2ccc([N+](=O)[O-])cc2)cc1 (stereo not given) | AP-2 complex subunit beta (Homo sapiens) (UniProt P63010) | % | -1.46 |
| O=C(CCC(=O)c1cccs1)c1cccs1 | AP-2 complex subunit beta (Homo sapiens) (UniProt P63010) | % | -11.3 |
| CC(C)(C)C(=O)Nc1cccc(OC(F)(F)C(F)Cl)c1 (stereo not given) | AP-2 complex subunit beta (Homo sapiens) (UniProt P63010) | % | 8.53 |
| CC(=O)SC1CC2=CC(=O)CCC2(C)C2CCC3(C)C(CCC34CCC(=O)O4)C12 (stereo not given) | AP-2 complex subunit beta (Homo sapiens) (UniProt P63010) | % | -8.52 |

The following molecules each have a reported value; give each one's inhibition.
1. C[C@]12CCC3C(CC=C4C[C@@H](O)CC[C@@]43C)C1CCC2[C@]1(C)CCC(=O)O1 (stereo not given in full)
2. Cc1ccc([N+](=O)[O-])cc1NC1OC(CO)C(O)C1O (stereo not given)
3. COc1ccc2[nH]c(=O)c(CNC3CCCCC3)cc2c1
4. COc1cccc(OCC(O)CO)c1 (stereo not given)
5. O=C(O)c1ccccc1C(=O)OCCCCOC(=O)c1ccccc1C(=O)O
6. COc1cc(OC)c2c(C)c(Cl)c(=O)oc2c1
7. O=c1c2[nH]c3ccccc3c2ncn1CCC1=CCCCC1
8. CC(/C=C1\SC(=O)N(CCCC(=O)O)C1=O)=C\c1ccccc1

[out]
1. -4.51
2. 7.17
3. -0.94
4. 11.4
5. -4.07
6. -8.58
7. -5.27
8. 37.2
